The entries below come with measured pancreas uptake values attached.
Test system: LNCaP xenografts
procedureSummary: Ex vivo biodistribution and blocking studies in mice bearing LNCaP xenografts
protocolConditions: 1 h blocked (coinjection of DCFPyL 0.5 mg)
Dear colleague, please return just the value in %ID/g, with no unit written.

C[N+](C)(Cc1cn(Cc2ccc(C(=O)NCCCC[C@H](NC(=O)N[C@@H](CCC(=O)O)C(=O)O)C(=O)O)cn2)nn1)C[B-](F)(F)F [^18F-3]	0.08
O=C(O)CC[C@H](NC(=O)N[C@@H](CCCCNC(=O)[C@H](Cc1ccc2ccccc2c1)NC(=O)[C@H]1CC[C@H](CNC(=O)Cn2cc(C[n+]3ccc([B-](F)(F)F)cc3)nn2)CC1)C(=O)O)C(=O)O [^18F-6]	0.16
O=C(O)CC[C@H](NC(=O)N[C@@H](CCCCNC(=O)c1ccc(Cn2cc(C[n+]3ccc([B-](F)(F)F)cc3)nn2)nc1)C(=O)O)C(=O)O [^18F-4]	0.08

Let us move to another entry and its pancreas uptake.
Incoming: Output measured pancreas uptake for this item: C[N+](C)(Cc1ccc(C(=O)NCCCC[C@H](NC(=O)N[C@@H](CCC(=O)O)C(=O)O)C(=O)O)cc1)C[B-](F)(F)F [^18F-1]
Outgoing: 0.11

* * *

Quick reference for T/M (tumor-to-muscle ratio) among some molecules
Tested on: LNCaP xenografts
procedureSummary: Ex vivo biodistribution and blocking studies in mice bearing LNCaP xenografts
protocolConditions: 1 h blocked (coinjection of DCFPyL 0.5 mg)
# respond with the number and nothing more

Consider the worked cases shown below.
C[N+](C)(Cc1cn(CC(=O)NC[C@H]2CC[C@H](C(=O)N[C@@H](Cc3ccc4ccccc4c3)C(=O)NCCCC[C@H](NC(=O)N[C@@H](CCC(=O)O)C(=O)O)C(=O)O)CC2)nn1)C[B-](F)(F)F [^18F-5]	2.85
O=C(O)CC[C@H](NC(=O)N[C@@H](CCCCNC(=O)[C@H](Cc1ccc2ccccc2c1)NC(=O)[C@H]1CC[C@H](CNC(=O)Cn2cc(C[n+]3ccc([B-](F)(F)F)cc3)nn2)CC1)C(=O)O)C(=O)O [^18F-6]	3.78
C[N+](C)(Cc1cn(CC(=O)NCCOCCOCCC(=O)N[C@@H](Cc2ccc3ccccc3c2)C(=O)NCCCC[C@H](NC(=O)N[C@@H](CCC(=O)O)C(=O)O)C(=O)O)nn1)C[B-](F)(F)F [^18F-7]	3.62

Below: the item to evaluate.
Incoming: Param request: T/M (tumor-to-muscle ratio) | system LNCaP xenografts | item C[N+](C)(Cc1cn(CC(=O)N[C@@H](CCC(=O)O)C(=O)NCCCC[C@H](NC(=O)[C@H](CCC(=O)O)NC(=O)Cn2cc(C[N+](C)(C)C[B-](F)(F)F)nn2)C(=O)NC[C@H]2CC[C@H](C(=O)N[C@@H](Cc3ccc4ccccc4c3)C(=O)NCCCC[C@H](NC(=O)N[C@@H](CCC(=O)O)C(=O)O)C(=O)O)CC2)nn1)C[B-](F)(F)F [^18F-8]
Outgoing: 3.07

* * *

System: LNCaP xenografts
procedureSummary: Ex vivo biodistribution and blocking studies in mice bearing LNCaP xenografts
protocolConditions: 1 h blocked (coinjection of DCFPyL 0.5 mg)
experimentalEndpoint: spleen uptake (%ID/g)
State just the number; it will be interpreted in %ID/g.

C[N+](C)(Cc1cn(Cc2ccc(C(=O)NCCCC[C@H](NC(=O)N[C@@H](CCC(=O)O)C(=O)O)C(=O)O)cc2)nn1)C[B-](F)(F)F [^18F-2]	0.09
C[N+](C)(Cc1cn(Cc2ccc(C(=O)NCCCC[C@H](NC(=O)N[C@@H](CCC(=O)O)C(=O)O)C(=O)O)cn2)nn1)C[B-](F)(F)F [^18F-3]	0.09

Proceed to the following item.
Incoming: Tell us which spleen uptake value is on record for O=C(O)CC[C@H](NC(=O)N[C@@H](CCCCNC(=O)c1ccc(Cn2cc(C[n+]3ccc([B-](F)(F)F)cc3)nn2)nc1)C(=O)O)C(=O)O [^18F-4]
Outgoing: 0.13

These data points were gathered from paper PMC6681697.
